Reference source for all entries: ChEMBL document CHEMBL3988442

# Test system: Wolbachia pipientis
# assay.notes: Anti-Wolbachia Cell-Based Screen
# Assay type: functional
# Parameters: scale not given: in the data most compounds retested in dose-response had high values
# condition.label: 5 µM
In all, about 48,000 compounds went through this assay and about 13,000 (27%) showed an effect of 50% or more. This is one part of the list.
assay.endpoint: Percent Effect
Show the value, then the unit it is measured in.

Solved cases (4 shown):
compound	measured.on	result
O=C(C1=CCCC1)N1C[C@H]2CCC[C@@]2(COCc2ccncc2)C1.O=C(O)C(F)(F)F	Wolbachia pipientis	12.49%
O=C(C1=CCCC1)N1C[C@@H]2COC[C@]2(COCc2ccncc2)C1	Wolbachia pipientis	94.55%
O=C(C1=CCCC1)N1CCC[C@]2(C[C@@H](Oc3ncccc3F)CO2)C1.O=C(O)C(F)(F)F	Wolbachia pipientis	-5.101%
Cc1cc(F)ccc1C(=O)N1C[C@@H]2COC[C@]2(COCC2CC2)C1	Wolbachia pipientis	3.024%

Take each entry in turn and give its Percent Effect.
1. O=C1CCOCCN1Cc1ccc(Cl)c(Cl)c1
2. CC(Cn1cccn1)NCCS(=O)(=O)c1ccc(Cl)cc1 (stereo not given)
3. CNC(=O)[C@@H]1C[C@H](N)CN1S(=O)(=O)c1cc(Cl)cc(Cl)c1O
4. O=C(Cc1ccco1)N1C[C@@H]2COC[C@]2(COCC2CCOCC2)C1
5. O=C(N1CCCC1)N1CC[C@H]2OCC[C@@]2(COc2ncccc2F)C1.O=C(O)C(F)(F)F
6. CC(C)(C)c1coc([C@@H]2COCCN2Cc2cnc3ccccc3c2)n1

A.
1. 9.877%
2. 2.973%
3. -28.57%
4. -6.133%
5. -10.69%
6. -14.41%
